# pKd per entry
# Target under test: human α1B‐adrenoceptor (Homo sapiens, UniProt P35368)
# Construct: expressed in transfected cells; host or cells: CHO-K1
# Assay: ^3H‐prazosin whole‐cell radioligand binding, CHO‐α1B cells
# Measurement parameters: CHO‐α1B cells; given as log KD (negative); mean ± SEM
Entry type: numeric. Quantity: pKd, the -log10 of concentration in molar units.

OCc1cc(C(O)CNCCCCCCOCCCCc2ccccc2)ccc1O (stereo not shown)
5.13
c1ccc(C2CC2)c(OCC2=NCCN2)c1
5.10
COc1nc(C)nc(Cl)c1N=C1NCCN1
3.47

Challenge: Quick check: pKd on human α1B‐adrenoceptor (Homo sapiens, UniProt P35368), item N=C(N)NC(=O)Cc1c(Cl)cccc1Cl ?
Response given: 3.87

---

# EC50 per entry
# Target under test: human α1B‐adrenoceptor (Homo sapiens)
# Construct: expressed in transfected cells; host or cells: CHO-K1
# Assay: ERK1/2‐phosphorylation (Surefire Alphascreen), CHO‐α1B cells
# Assay type: cell-based
# Measurement parameters: CHO‐α1B cells; for bi‐phasic responses the initial stimulatory part; read-out: ERK1/2‐phosphorylation Log EC50 (converted)
Express your answer in nM, writing the number without its unit.

Brc1c(NC2=NCCN2)ccc2nccnc12 [Brimonidine]
724
c1ccc2c(CC3=NCCN3)cccc2c1
151
Clc1ccc2nsnc2c1NC1=NCCN1
288
COc1nc(C)nc(Cl)c1N=C1NCCN1
912
N=C(N)NC(=O)Cc1c(Cl)cccc1Cl
195
C[C@H](N)[C@H](O)c1cccc(O)c1
1450
COc1ccc(OC)c(C(O)C(C)N)c1 (centres unmarked)
2820
CCNCC(O)c1cccc(O)c1 (centres unmarked)
302

Challenge: Give its EC50 value. Item: NCC(O)c1ccc(O)cc1 (centres unmarked)
Response given: 7760

Challenge: Give its EC50 value. Item: Brc1c(NC2=NCCN2)ccc2nccnc12 [UK14304]
Response given: 316

Challenge: Give its EC50 value. Item: c1ccc(C2CC2)c(OCC2=NCCN2)c1
Response given: 120

---

# Target under test: human α1B‐adrenoceptor (Homo sapiens)
# Construct: expressed in transfected cells; host or cells: CHO-K1
# Sequence (P35368 1-520): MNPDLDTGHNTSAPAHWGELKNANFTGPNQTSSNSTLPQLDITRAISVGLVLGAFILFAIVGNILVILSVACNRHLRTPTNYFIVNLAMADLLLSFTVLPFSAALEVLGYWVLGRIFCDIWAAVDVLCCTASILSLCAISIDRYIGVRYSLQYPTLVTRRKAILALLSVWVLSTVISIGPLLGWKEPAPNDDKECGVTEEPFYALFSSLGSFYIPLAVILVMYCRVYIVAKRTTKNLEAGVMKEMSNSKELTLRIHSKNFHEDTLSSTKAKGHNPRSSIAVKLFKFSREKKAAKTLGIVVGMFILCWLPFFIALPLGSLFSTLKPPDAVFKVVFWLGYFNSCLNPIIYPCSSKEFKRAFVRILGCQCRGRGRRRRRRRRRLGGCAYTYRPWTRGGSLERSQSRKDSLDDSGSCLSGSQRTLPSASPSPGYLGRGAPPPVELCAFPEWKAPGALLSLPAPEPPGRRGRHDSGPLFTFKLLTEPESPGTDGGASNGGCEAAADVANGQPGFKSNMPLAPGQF
# Assay: ^3H‐prazosin whole‐cell radioligand binding, CHO‐α1B cells
# Measurement parameters: CHO‐α1B cells; given as log KD (negative); mean ± SEM
Value type: Log KD α1B, ^3H‐prazosin whole cell binding

Solved cases (5 shown):
COc1ccc(OC)c(C(O)CNC(=O)CN)c1 (stereo not drawn) [Midodrine]
No binding
CCc1cccc(CC)c1NC1=NCCN1 [ST‐91]
−4.39 ± 0.04
Cc1sc(C)c2c1CCC=C2c1cnc[nH]1.O=C(O)/C=C\C(=O)O [T‐CG 1000]
−5.18 ± 0.06
C[C@](N)(Cc1ccc(O)c(O)c1)C(=O)O [Methyldopa]
No binding
C=CCN1CCc2nc(N)sc2CC1 [BHT920]
−3.73 ± 0.04

// next entry
Challenge: Give its Log KD α1B, ^3H‐prazosin whole cell binding value. Item: CCN1CCc2nc(N)oc2CC1 [BHT933]
Response given: No binding
